# Test system: NCI-H522 lung
# EXPERIMENT DESCRIPTION: NCI tumour cell line growth inhibition, 48 h
Where a SMILES comes first, the peptide text is derived from it. [ ]: non-standard residue; d: D form. The star is where a group is joined. ξ: configuration not given here. X16 = COC1=CC(=O)N(C(=O)C(O*)C(C)C)C1Cc1ccccc1; ξNMe2Val = CC(C)C(C(=O)*)N(C)C; NMeV = CN[CH](C(=O)O)C(C)C
Give TGI for every item shown.
Answers are plain numbers, in µM.

Below are worked cases with known answers.
COMPOUND: N#CI1OC(=O)c2ccccc21
OBSERVED MEASUREMENT: 55.6
//
COMPOUND: CC(C)(C)C1CCC2c3c([nH]c4ccccc34)C3C(=O)N(c4cc(Br)cc(Br)c4)C(=O)C3C2C1 (stereo not drawn)
OBSERVED MEASUREMENT: 66.4
//
COMPOUND: O=C(NNc1nc2cc(F)ccc2n2c(CN3CCOCC3)ccc12)c1ccccc1
OBSERVED MEASUREMENT: 3.52

Batch: TGI for all items listed.
1. CC1=C/C(=C(\c2ccc(N(C)C)cc2)c2ccc([N+](C)(C)C)cc2)C=CC1=[N+](C)C
2. COc1cc(-c2c3c(cn2S(=O)(=O)c2ccccc2)-c2nc(N)sc2CC3)cc(OC)c1OC
3. CC(C)CN1CN(c2ccccc2)C2(CCN(CC(C)(c3ccc(F)cc3)C3OCCO3)CC2)C1=O (stereo not drawn)
4. COc1ccccc1-c1cc2c3c(nc4ccccc42)C(=O)c2cccnc2-c3n1
5. On1c(-c2ccccc2)c(-c2c(-c3ccccc3)n(O)c3ccccc23)c2ccccc21
6. CC(C)(C)C1CC[C@H]2c3c([nH]c4ccc(Br)cc34)[C@H]3C(=O)N(c4ccccc4)C(=O)[C@H]3[C@H]2C1 (stereo partly drawn)
7. COc1cc2c(-c3nc4cc(Cl)c(F)cc4s3)cc(=O)oc2c(C)c1OC

1. 31.2
2. 6.83
3. 12.7
4. 5.23
5. 52.3
6. 69.3
7. 0.354

Batch: TGI for all items listed.
1. COC1=CC(=O)N(C(=O)C(OC(=O)C2CCCN2C(=O)C2CCCN2C(=O)C(C(C)C)N(C)C(=O)C(NC(=O)C(C(C)C)N(C)C)C(C)C)C(C)C)C1Cc1ccccc1 (stereo not drawn) (ξNMe2Val-V[NMeV]PP-X16; configuration not given here)
2. CCN(CC)c1ccc(NC(C(=O)c2ccccc2)c2ccccc2)cc1 (stereo not drawn)
3. CN(CCNC(=O)c1[nH]nc2c1ccc1ccccc12)CCNC(=O)c1[nH]nc2c1ccc1ccccc12
4. CCC(=O)Sc1ccccc1C(=O)Nc1ccc(Cl)cc1
5. O=C(CC12CC3CC(CC(C3)C1)C2)NCCOCCOCCNC(=O)c1cc2c(o1)C(=O)c1ccccc1C2=O

0.00182
7.05
3.9
27.1
3.04

====

# Test system: UO-31 renal
# EXPERIMENT DESCRIPTION: NCI tumour cell line growth inhibition, 48 h
Give TGI for every item shown.

Below are worked cases with known answers.
MOLECULE: COc1cc2c(cc1OC)C13CCN4CC5=CCOC(CC(=O)O)C(C5CC41)C3N2 (stereo unspecified)
TGI: > 100 µM
--
MOLECULE: O=c1cnn(C2OC(CO)C(O)C(F)C2O)c(=O)[nH]1 (stereo unspecified)
TGI: > 100 µM
--
MOLECULE: Cc1c(C)c(C)c(-n2c(=O)n(C)c(=O)n2C(C)(C)C)c(C)c1C
TGI: > 100 µM

Batch: TGI for all items listed.
1. O=C1CCC2(c3ccc(F)cc3)Nc3ccccc3N12 (stereo unspecified)
2. COC(=O)C(=O)C(C(=O)C(=O)Nc1ccccc1C(=O)OC)c1nc2ccc(C(=O)c3ccccc3)cc2[nH]c1=O (stereo unspecified)

1. > 100 µM
2. > 100 µM

Sourced from PubChem BioAssay (NCI)
